Origin of the recorded values: paper PMC5797126

- assayProtocol: in vitro
- condition: human
measurementType: CC50 at 24 h

Please review the following examples before continuing.
Cn1c(=O)c(Nc2ccccc2)c(O)c2c(=O)n(-c3ccccc3)c(=O)n(-c3ccccc3)c21 [Compound S2f] :: > 100 µM
Cc1ccc(-n2c(NCCCN3CCOCC3)nc3ccccc3c2=O)cc1 [Compound S1c] :: > 100 µM
O=c1c2ccccc2nc(NCCN2CCNCC2)n1-c1ccccc1 [Compound S1a] :: > 100 µM

Switching to the query record.
In: Entry under review: COc1c(C(C)c2ccccc2)c(=O)n(C)c2c1c(=O)n(-c1ccccc1)c(=O)n2-c1ccccc1 (stereo not shown) [Compound S2d] . Reported CC50 at 24 h?
Out: 66.6 µM
